biological target: D614G Spike (SARS-CoV2)
Assay endpoint: pKd
Scale: negative log10 of molar concentration, which is what pKd denotes.

## Task Kindly indicate its recorded pKd. Item: Ab_19 scFv-Fc (scFv, V domains shown) VH: EVQLVESGAEVKKPGESLKISCKGSGYSFTSYWIGWVRQMPGKGLEWMGIIYPGDSDTRYSPSFQGQVTISADKSISTAYLQWSSLKASDTAMYYCARRGDLDAFDIWGQGTMVTVSS VL: QPGLTQPPAASGTPGQRVTVSCSGASANIGSNAVSWFKQFPETAPRLLISGNTHRPSGVPDRVSGSKSGTSASLTISGLQSDDEADYYCAAWDDSLNGYVFGSGTKVTVL
## Result 10.96

Reference for the values: patent US20240409617A1
